Documented MIC across a set of compounds
Tested on: Neisseria meningitidis (N. meningitidis) 13090
Test: Antibacterial activity, MIC, N. meningitidis 13090
Assay type: cell-based
Conditions: Neisseria meningitidis; N. meningitidis 13090; read-out: MIC 13090
Metric: MIC

compound="CCc1cc(C(=O)O)c(=O)[nH]c1-c1ccc(N(C)C)c(F)c1 [Cpd 93]" target="Neisseria meningitidis (N. meningitidis) 13090" assay_result="< 1 µg/mL"
compound="CCc1c(-c2ccc(N(C)C)s2)[nH]c(=O)c(C(=O)O)c1O [Cpd 306]" target="Neisseria meningitidis (N. meningitidis) 13090" assay_result="< 1 µg/mL"
compound="CN(C)c1ccc(-c2[nH]c(=O)c(C(=O)O)c(O)c2C2CCCCC2)cc1 [Cpd 7]" target="Neisseria meningitidis (N. meningitidis) 13090" assay_result="1 to 3.5 µg/mL"
compound="CCCc1c(-c2ccc(N(C)C)cc2)[nH]c(=O)c(C(=O)O)c1O [Cpd 9]" target="Neisseria meningitidis (N. meningitidis) 13090" assay_result="< 1 µg/mL"
compound="CCc1c(-c2ccc(N3C[C@H]4CC[C@@H](N)[C@H]4C3)cc2)[nH]c(=O)c(C(=O)O)c1O.Cl [Cpd 264]" target="Neisseria meningitidis (N. meningitidis) 13090" assay_result="< 1 µg/mL"

###

System: E. coli ELZ4251 (MDR clinical isolate)
Experiment: Antibacterial activity, MIC, MDR E. coli ELZ4251
Type: cell-based, Escherichia coli
Conditions: Escherichia coli, E. coli ELZ4251, MDR clinical isolate; read-out: MIC ELZ4251
Structures can show the parent of a compound that is named as a salt.
Documented MIC across a set of compounds
Metric: MIC

compound="CCc1c(-c2ccc(N3CC4CCCNC4C3)cc2)[nH]c(=O)c(C(=O)O)c1O.Cl (stereo not shown)" target="E. coli ELZ4251 (MDR clinical isolate)" assay_result="1 to 3.5 µg/mL"
compound="CCc1cc(C(=O)O)c(=O)[nH]c1-c1ccc(N2CCC(CN(C)C)C2)cc1.O=C(O)C(F)(F)F (stereo not shown)" target="E. coli ELZ4251 (MDR clinical isolate)" assay_result="12.5 to 150 µg/mL"
compound=CCc1cc(C(=O)O)c(=O)[nH]c1-c1ccc(N2CCCC2)cc1 target="E. coli ELZ4251 (MDR clinical isolate)" assay_result="12.5 to 150 µg/mL"
compound=CCc1cc(C(=O)O)c(=O)[nH]c1-c1ccc(N(C)c2ccccc2)cc1 target="E. coli ELZ4251 (MDR clinical isolate)" assay_result="12.5 to 150 µg/mL"
compound=CCc1c(-c2ccc(N(C)C)s2)[nH]c(=O)c(C(=O)O)c1O target="E. coli ELZ4251 (MDR clinical isolate)" assay_result="12.5 to 150 µg/mL"
compound=CCc1cc(C(=O)O)c(=O)[nH]c1-c1ccc(N2CC[C@H](N)C2)cc1.Cl target="E. coli ELZ4251 (MDR clinical isolate)" assay_result="12.5 to 150 µg/mL"
compound=CCc1cc(C(=O)O)c(=O)[nH]c1-c1ccc(N(C)CCN(C)C)cc1 target="E. coli ELZ4251 (MDR clinical isolate)" assay_result="12.5 to 150 µg/mL"
compound="CCc1cc(C(=O)O)c(=O)[nH]c1-c1ccc(N2CCC(F)C2)cc1 (stereo not shown)" target="E. coli ELZ4251 (MDR clinical isolate)" assay_result="12.5 to 150 µg/mL"
compound=CCc1c(-c2ccc(N3CC[C@H](F)C3)cc2)[nH]c(=O)c(C(=O)O)c1O target="E. coli ELZ4251 (MDR clinical isolate)" assay_result="12.5 to 150 µg/mL"
compound=CCc1cc(C(=O)O)c(=O)[nH]c1-c1ccc(N2CC[C@@H](F)C2)cc1 target="E. coli ELZ4251 (MDR clinical isolate)" assay_result="12.5 to 150 µg/mL"
compound=CCc1c(-c2ccc(N(C)C)c(F)c2)[nH]c(=O)c(C(=O)O)c1O target="E. coli ELZ4251 (MDR clinical isolate)" assay_result="12.5 to 150 µg/mL"
compound=CCc1cc(C(=O)O)c(=O)[nH]c1-c1ccc(N2CC[C@H](N=[N+]=[N-])C2)cc1 target="E. coli ELZ4251 (MDR clinical isolate)" assay_result="12.5 to 150 µg/mL"
compound=CCc1c(-c2ccc(N(C)CCO)cc2)[nH]c(=O)c(C(=O)O)c1O target="E. coli ELZ4251 (MDR clinical isolate)" assay_result="12.5 to 150 µg/mL"
compound=CCc1c(-c2ccc(N3C[C@H]4CCN[C@H]4C3)cc2)[nH]c(=O)c(C(=O)O)c1O.Cl target="E. coli ELZ4251 (MDR clinical isolate)" assay_result="3.5 to 12.5 µg/mL"
compound=C=CCN(CC=C)c1ccc(-c2[nH]c(=O)c(C(=O)O)c(O)c2CC)cc1 target="E. coli ELZ4251 (MDR clinical isolate)" assay_result="12.5 to 150 µg/mL"
compound=CCc1cc(C(=O)O)c(=O)[nH]c1-c1ccc(N2CCC2)cc1 target="E. coli ELZ4251 (MDR clinical isolate)" assay_result="12.5 to 150 µg/mL"
compound=CCc1c(-c2ccc(N3CC[C@@H](O)C3)cc2)[nH]c(=O)c(C(=O)O)c1O target="E. coli ELZ4251 (MDR clinical isolate)" assay_result="12.5 to 150 µg/mL"
compound=CCc1c(-c2ccc(N(C)C)nc2)[nH]c(=O)c(C(=O)O)c1O target="E. coli ELZ4251 (MDR clinical isolate)" assay_result="1 to 3.5 µg/mL"
compound=CCc1cc(C(=O)O)c(=O)[nH]c1-c1ccccc1 target="E. coli ELZ4251 (MDR clinical isolate)" assay_result="12.5 to 150 µg/mL"
compound="CCc1cc(C(=O)O)c(=O)[nH]c1-c1ccc(N2CCC(CNCc3ccccc3)C2)cc1.Cl (stereo not shown)" target="E. coli ELZ4251 (MDR clinical isolate)" assay_result="12.5 to 150 µg/mL"
compound=CCc1cc(C(=O)O)c(=O)[nH]c1-c1ccc(N)cc1 target="E. coli ELZ4251 (MDR clinical isolate)" assay_result="12.5 to 150 µg/mL"
compound="CCc1cc(C(=O)O)c(=O)[nH]c1-c1ccc(N2CCC(N=[N+]=[N-])C2)cc1 (stereo not shown)" target="E. coli ELZ4251 (MDR clinical isolate)" assay_result="12.5 to 150 µg/mL"
compound=CCc1cc(C(=O)O)c(=O)[nH]c1-c1ccc(N2C[C@@H](N)[C@H](OC)C2)cc1.Cl target="E. coli ELZ4251 (MDR clinical isolate)" assay_result="12.5 to 150 µg/mL"
compound=CCc1cc(C(=O)O)c(=O)[nH]c1-c1ccc(N2CC[C@H](N(C)C)C2)cc1.Cl target="E. coli ELZ4251 (MDR clinical isolate)" assay_result="12.5 to 150 µg/mL"
compound=CCc1cc(C(=O)O)c(=O)[nH]c1-c1ccc(N2C[C@@H]3[C@@H](N)[C@@H]3C2)cc1 target="E. coli ELZ4251 (MDR clinical isolate)" assay_result="12.5 to 150 µg/mL"
compound=CCCc1cc(C(=O)O)c(=O)[nH]c1-c1ccc(N(C)C)cc1 target="E. coli ELZ4251 (MDR clinical isolate)" assay_result="12.5 to 150 µg/mL"
compound=CCc1c(-c2ccc(N3CC=CC3)cc2)[nH]c(=O)c(C(=O)O)c1O target="E. coli ELZ4251 (MDR clinical isolate)" assay_result="12.5 to 150 µg/mL"
compound="CCc1c(-c2ccc(N3C[C@@H]4[C@H](C3)[C@H]4N(C)C)cc2)[nH]c(=O)c(C(=O)O)c1O [Cpd 271, hydrochloride]" target="E. coli ELZ4251 (MDR clinical isolate)" assay_result="3.5 to 12.5 µg/mL"
compound=CCc1cc(C(=O)O)c(=O)[nH]c1-c1ccc(N2CC=CC2)cc1 target="E. coli ELZ4251 (MDR clinical isolate)" assay_result="12.5 to 150 µg/mL"
compound=CCc1c(-c2ccc(N3C[C@H]4CCC[C@@H](N)[C@H]4C3)cc2)[nH]c(=O)c(C(=O)O)c1O.O=C(O)C(F)(F)F target="E. coli ELZ4251 (MDR clinical isolate)" assay_result="1 to 3.5 µg/mL"
compound=CCc1c(-c2ccc(N3C[C@H]4CC[C@@H](NC)[C@H]4C3)cc2)[nH]c(=O)c(C(=O)O)c1O.Cl target="E. coli ELZ4251 (MDR clinical isolate)" assay_result="3.5 to 12.5 µg/mL"
compound=CCc1c(-c2ccc(N3CCCC3)cc2)[nH]c(=O)c(C(=O)O)c1O target="E. coli ELZ4251 (MDR clinical isolate)" assay_result="12.5 to 150 µg/mL"
compound="CCc1c(-c2ccc(N3C[C@@H]4[C@H](C3)[C@H]4NC)cc2)[nH]c(=O)c(C(=O)O)c1O [Cpd 270, hydrochloride]" target="E. coli ELZ4251 (MDR clinical isolate)" assay_result="3.5 to 12.5 µg/mL"
compound="CCc1cc(C(=O)O)c(=O)[nH]c1-c1ccc(N2CCC(O)C2)cc1 (stereo not shown)" target="E. coli ELZ4251 (MDR clinical isolate)" assay_result="12.5 to 150 µg/mL"
